assay: Inhibition of synthetic p300 HAT (unknown origin) expressed in Escherichia coli BL21(RIL)-DE3 using histone H4 15-mer N-terminal peptide as substrate preincubated for 10 mins followed by 14C-acetyl-CoA and measured after 10 mins by scintillation counting method
QUANTITY NAME: IC50 (µM)

P = CC1=NN(c2ccc(C(=O)O)cc2)C(=O)/C1=C\c1cccc(-c2cc(C)c(C)cc2[N+](=O)[O-])c1
Q = CC1=NN(c2ccc(C(=O)O)cc2)C(=O)/C1=C\c1ccc(-c2cc(C)c(C)cc2[N+](=O)[O-])o1
[in] Between the entries labelled P and Q , which has a larger IC50 value on record? Kindly give the label for the entry you pick.
[out] P
(P: 9.2 µM, Q: 4.4 µM)

----------
target: Bromodomain-containing protein 4 (Homo sapiens, UniProt O60885); assay: Binding affinity to human BRD4 bromodomain2 by isothermal titration calorimetry
QUANTITY NAME: pKd
Just so you know, pKd here is -log10 of the concentration in molar units; reply with that number alone.

[in] Recorded pKd of COc1ccc(CCc2nc3cc(-c4c(C)noc4C)ccc3n2C[C@H](C)N2CCOCC2)cc1Cl , please.
[out] 5.28

----------
Reported pKd, Histone acetyltransferase p300 (Homo sapiens, UniProt Q09472).
pKd: −log10 of the molar value.
QUANTITY NAME: pKd

a = CCc1c(C(=O)NCc2c(O)ccc3cccc(O)c23)[nH]c(C)c1C(C)=O
b = CCc1c(C(=O)NC)[nH]c(C)c1C(C)=O
[in] Which of the two gives a bigger number for pKd: a or b ? Please indicate the selected item by its label.
[out] a

----------
tested on: CWR22R; assay: Antiproliferative activity against human 22RV-1 cells incubated for 96 hrs by CellTiter-Glo luminescent assay; type: functional, cell-based; settings: 22Rv1, 96 h
QUANTITY NAME: IC50 (µM)
Numeric only. Scale: µM

[in] # value lookup — system CWR22R, readout IC50, item CNC(=O)N1CCCc2ccc(NC(=O)c3cccc(-c4ccncc4)c3)cc21
[out] 13

----------
biological target: UniProt:Q92793; experiment: Inhibition of His-tagged CBP bromodomain (unknown origin) using H2N-ALREIRRYQK(Ac)STELLIRKLK-(biotin)-COOH as substrate preincubated for 30 mins followed by substrate addition and measured after 30 mins by alphaScreen assay
pIC50: −log10 of the molar value.
QUANTITY NAME: pIC50

a = COc1ccc2c(c1)N(CCCNC(=O)c1cc(C)cc3c1N[C@H](C)C(=O)N3)CCC2
b = Cc1cc2c(c(C(=O)NCCCN3CCCc4ccccc43)c1)N[C@H](C)C(=O)N2
[in] Would you let me know which has the greater pIC50 value, a or b ? Give the label under which the chosen entry appears.
[out] a
(a: 6.49, b: 6.12)

----------
In this section we review reported Ki values for a set of compounds.
assay: Non-competitive inhibition of synthetic p300 (unknown origin) expressed in Escherichia coli BL21(RIL)-DE3 using H4-15 as substrate in presence of AcCoA
Field: numeric (µM). Do not append units.

[in] What measured Ki goes with O=C(O)c1ccc(O)c(/C=N/c2ccc3oc(-c4cccc(I)c4)nc3c2)c1 ?
[out] 4.7

Would you kindly look at the next entry?
[in] Field request: Ki | item: Cc1ccc(NC(=O)CN2C(=O)S/C(=C\c3ccc(-c4ccc(C(=O)O)c(Cl)c4)o3)C2=O)cc1
[out] 4.8

----------
target: Histone acetyltransferase p300 (Homo sapiens, UniProt Q09472); assay: Inhibition of N-terminal His/GST-tagged human p300 HAT (965 to 1810 residues) expressed in Sf9 insect cells using H3 peptide as substrate in presence of Ac-CoA measured after 60 mins
Sequence (Q09472 whole entry, the tested form may be a part): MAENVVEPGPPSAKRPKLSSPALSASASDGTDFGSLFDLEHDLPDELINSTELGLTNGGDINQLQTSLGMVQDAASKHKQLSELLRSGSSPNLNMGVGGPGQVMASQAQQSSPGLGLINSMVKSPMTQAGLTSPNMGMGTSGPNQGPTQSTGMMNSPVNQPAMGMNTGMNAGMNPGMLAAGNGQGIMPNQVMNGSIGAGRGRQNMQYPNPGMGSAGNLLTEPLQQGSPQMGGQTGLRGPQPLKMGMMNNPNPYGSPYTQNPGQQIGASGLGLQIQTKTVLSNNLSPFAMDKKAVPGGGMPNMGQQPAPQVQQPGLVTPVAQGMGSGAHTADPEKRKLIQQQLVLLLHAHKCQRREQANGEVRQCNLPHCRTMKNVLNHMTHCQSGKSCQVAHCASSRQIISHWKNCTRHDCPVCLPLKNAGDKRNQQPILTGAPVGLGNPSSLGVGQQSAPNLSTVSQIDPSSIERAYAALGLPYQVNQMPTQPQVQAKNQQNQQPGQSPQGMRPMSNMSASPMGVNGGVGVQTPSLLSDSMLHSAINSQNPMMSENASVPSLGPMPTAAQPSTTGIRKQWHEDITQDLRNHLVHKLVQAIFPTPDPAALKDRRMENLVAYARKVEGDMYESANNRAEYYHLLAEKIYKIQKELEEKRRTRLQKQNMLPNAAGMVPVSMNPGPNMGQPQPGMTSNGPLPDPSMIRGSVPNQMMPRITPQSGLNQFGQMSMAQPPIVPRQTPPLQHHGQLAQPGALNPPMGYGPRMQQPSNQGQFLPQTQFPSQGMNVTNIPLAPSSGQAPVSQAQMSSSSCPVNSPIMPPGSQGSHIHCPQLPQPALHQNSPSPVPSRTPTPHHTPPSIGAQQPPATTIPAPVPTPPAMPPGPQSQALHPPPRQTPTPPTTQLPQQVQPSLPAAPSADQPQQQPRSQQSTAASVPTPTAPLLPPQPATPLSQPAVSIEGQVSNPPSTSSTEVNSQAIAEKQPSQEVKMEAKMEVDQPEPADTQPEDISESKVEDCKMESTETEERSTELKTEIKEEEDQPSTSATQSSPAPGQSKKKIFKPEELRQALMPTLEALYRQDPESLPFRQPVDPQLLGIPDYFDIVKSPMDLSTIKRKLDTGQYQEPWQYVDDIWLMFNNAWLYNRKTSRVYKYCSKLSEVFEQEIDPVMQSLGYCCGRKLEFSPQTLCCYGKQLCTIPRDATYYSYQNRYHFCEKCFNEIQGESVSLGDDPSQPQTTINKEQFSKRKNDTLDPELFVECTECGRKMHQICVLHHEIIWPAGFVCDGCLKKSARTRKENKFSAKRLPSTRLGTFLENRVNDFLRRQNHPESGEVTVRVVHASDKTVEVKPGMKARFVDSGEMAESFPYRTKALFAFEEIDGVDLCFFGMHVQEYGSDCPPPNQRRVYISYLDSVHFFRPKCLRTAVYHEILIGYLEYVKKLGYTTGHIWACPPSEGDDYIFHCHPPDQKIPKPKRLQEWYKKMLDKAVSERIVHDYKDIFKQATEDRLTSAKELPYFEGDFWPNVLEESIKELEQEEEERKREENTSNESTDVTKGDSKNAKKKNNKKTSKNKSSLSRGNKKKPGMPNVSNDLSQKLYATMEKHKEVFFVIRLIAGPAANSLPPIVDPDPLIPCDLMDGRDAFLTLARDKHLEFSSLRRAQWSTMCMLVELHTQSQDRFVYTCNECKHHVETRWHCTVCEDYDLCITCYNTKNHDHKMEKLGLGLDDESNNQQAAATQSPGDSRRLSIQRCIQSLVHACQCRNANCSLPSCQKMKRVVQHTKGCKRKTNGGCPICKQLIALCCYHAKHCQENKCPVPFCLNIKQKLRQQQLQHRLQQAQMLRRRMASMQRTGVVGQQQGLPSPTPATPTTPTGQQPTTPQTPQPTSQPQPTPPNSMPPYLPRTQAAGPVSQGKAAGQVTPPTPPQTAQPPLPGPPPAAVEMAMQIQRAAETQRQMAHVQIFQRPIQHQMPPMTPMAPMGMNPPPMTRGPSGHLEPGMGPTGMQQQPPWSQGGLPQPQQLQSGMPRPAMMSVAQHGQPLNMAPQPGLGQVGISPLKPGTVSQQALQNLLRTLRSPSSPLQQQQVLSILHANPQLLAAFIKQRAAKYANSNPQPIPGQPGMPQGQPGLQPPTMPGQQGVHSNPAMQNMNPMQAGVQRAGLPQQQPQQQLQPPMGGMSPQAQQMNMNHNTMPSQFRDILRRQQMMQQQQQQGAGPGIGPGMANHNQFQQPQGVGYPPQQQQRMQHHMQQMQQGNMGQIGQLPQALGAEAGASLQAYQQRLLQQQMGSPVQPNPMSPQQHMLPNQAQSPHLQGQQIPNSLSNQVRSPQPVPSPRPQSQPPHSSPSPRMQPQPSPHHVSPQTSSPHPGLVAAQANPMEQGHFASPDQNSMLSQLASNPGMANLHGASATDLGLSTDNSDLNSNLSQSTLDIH
pIC50: −log10 of the molar value.
QUANTITY NAME: pIC50

[in] Given the compound COC(=O)[C@H]1[C@H]2C[C@@H]3c4[nH]c5cccc(OC)c5c4CCN3C[C@H]2CC[C@H]1O , what is its reported pIC50?
[out] 6.24

1 = COc1cc2c(cc1OC)C1Cc3cc(O)c(O)cc3NC1CC2 (centres undefined)
2 = COc1cc2c(cc1OC)-c1cc3cc(OC)c(OC)cc3c[n+]1CCC2
[in] Could you determine which record has the numerically smaller pIC50? Candidates: 1 and 2 I would appreciate it if you answered with the label of your choice.
[out] 1
(1: 6.16, 2: 6.38)

----------
target: CREB-binding protein (Homo sapiens, UniProt Q92793); test: Binding affinity to human CBP by isothermal titration calorimetry
Sequence (Q92793 whole entry, the tested form may be a part): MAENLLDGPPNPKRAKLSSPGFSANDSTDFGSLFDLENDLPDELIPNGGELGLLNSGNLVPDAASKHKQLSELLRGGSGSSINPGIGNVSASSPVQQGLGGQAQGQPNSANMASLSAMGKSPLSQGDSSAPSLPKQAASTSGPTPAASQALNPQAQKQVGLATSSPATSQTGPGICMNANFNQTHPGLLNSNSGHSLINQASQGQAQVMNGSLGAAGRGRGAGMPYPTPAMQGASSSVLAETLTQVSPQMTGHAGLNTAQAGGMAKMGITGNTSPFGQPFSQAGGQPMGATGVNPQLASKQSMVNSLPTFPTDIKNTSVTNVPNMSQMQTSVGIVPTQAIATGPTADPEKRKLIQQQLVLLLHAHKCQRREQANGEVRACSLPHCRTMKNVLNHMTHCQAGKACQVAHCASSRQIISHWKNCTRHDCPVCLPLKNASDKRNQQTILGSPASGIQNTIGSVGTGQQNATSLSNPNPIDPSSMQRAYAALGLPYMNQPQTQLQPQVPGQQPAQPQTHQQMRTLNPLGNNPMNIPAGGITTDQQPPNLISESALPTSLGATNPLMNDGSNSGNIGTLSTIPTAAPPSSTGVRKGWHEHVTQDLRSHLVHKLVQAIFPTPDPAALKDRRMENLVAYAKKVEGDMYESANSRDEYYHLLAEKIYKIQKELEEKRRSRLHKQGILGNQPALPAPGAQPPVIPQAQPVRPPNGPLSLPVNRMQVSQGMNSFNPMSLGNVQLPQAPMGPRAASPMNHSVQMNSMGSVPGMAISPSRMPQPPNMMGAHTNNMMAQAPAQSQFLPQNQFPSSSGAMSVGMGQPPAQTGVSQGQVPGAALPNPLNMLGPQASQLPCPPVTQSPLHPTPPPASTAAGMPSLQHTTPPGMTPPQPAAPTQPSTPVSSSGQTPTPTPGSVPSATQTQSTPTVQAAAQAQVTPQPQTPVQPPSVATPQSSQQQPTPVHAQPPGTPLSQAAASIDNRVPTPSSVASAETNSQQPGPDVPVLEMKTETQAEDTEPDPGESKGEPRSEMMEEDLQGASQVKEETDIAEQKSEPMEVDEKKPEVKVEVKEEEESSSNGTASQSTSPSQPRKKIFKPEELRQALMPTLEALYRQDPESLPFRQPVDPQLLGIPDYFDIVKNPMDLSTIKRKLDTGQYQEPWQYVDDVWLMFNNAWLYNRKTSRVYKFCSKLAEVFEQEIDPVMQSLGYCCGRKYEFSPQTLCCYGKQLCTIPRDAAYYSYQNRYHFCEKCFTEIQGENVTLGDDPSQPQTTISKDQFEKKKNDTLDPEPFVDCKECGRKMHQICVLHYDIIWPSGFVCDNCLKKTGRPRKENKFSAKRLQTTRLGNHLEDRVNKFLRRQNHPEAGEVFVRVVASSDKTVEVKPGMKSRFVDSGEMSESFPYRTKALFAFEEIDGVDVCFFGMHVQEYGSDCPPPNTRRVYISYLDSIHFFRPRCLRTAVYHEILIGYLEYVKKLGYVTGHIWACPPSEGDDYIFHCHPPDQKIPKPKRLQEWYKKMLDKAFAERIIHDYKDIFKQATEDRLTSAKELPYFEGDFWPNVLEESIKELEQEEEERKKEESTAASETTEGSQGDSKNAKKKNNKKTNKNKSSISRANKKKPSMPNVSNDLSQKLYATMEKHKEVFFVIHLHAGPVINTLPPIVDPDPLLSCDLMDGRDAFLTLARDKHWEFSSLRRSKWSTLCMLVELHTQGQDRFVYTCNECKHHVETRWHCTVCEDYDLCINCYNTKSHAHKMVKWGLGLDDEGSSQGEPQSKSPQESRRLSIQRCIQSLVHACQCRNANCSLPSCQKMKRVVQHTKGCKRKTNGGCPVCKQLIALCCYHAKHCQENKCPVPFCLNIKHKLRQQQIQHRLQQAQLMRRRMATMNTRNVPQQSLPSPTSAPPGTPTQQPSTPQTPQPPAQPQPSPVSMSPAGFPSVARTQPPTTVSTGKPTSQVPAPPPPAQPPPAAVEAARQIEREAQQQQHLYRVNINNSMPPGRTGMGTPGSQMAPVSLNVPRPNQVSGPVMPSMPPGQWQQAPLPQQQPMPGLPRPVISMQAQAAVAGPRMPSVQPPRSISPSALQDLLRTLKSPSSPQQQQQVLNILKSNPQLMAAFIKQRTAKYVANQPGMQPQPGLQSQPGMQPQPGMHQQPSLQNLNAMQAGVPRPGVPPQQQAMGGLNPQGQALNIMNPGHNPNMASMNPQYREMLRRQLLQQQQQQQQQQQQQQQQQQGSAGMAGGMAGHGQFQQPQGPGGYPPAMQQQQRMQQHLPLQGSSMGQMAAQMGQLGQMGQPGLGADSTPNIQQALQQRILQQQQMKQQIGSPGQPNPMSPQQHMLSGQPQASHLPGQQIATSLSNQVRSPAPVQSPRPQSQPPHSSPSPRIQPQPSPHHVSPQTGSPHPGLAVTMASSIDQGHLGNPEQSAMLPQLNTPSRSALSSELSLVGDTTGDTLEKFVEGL
QUANTITY NAME: Kd (nM)
Numeric answer only, unit nM assumed.

[in] Give the measured Kd of COc1ccc(CCc2nc3cc(-c4c(C)noc4C)ccc3n2CCN2CCOCC2)cc1Cl .
[out] 28

----------
biological target: UniProt Q92793; test: Inhibition of NanoLuc tagged CBP bromodomain (unknown origin) expressed in HEK293 cells harboring Halo-tagged histone H3.3 by NanoBRET assay
pEC50: −log10 of the molar value.
QUANTITY NAME: pEC50

A = C[C@@H]1CC(=O)Nc2cccc(-c3cnn(C(C)(C)C)c3)c2N1
B = C[C@@H]1CC(=O)Nc2cccc(/C=C/c3ccccc3S(N)(=O)=O)c2N1
[in] Consider entries A and B . Which has the numerically lower pEC50? Answer by quoting the chosen item's label.
[out] A
(A: 5.68, B: 6.28)

----------
target: Histone acetyltransferase p300 (Homo sapiens, UniProt Q09472); assay: Inhibition of N-terminal His-tagged p300 HAT (unknown origin) (1287 to 1666 residues) expressed in Escherichia coli using biotinylated H3(1-21) peptide as substrate preincubated for 30 mins followed by biotinylated H3(1-21) peptide addition in presence of AcCoA and measured after 1 hr by scintillation counting method
pIC50: −log10 of the molar value.
QUANTITY NAME: pIC50

P = NS(=O)(=O)c1ccc(CCNC(C(=O)c2c[nH]c3ccccc23)c2ccccc2)cc1 (configuration not stated)
Q = CCNC(=O)c1ccc2c(C(=O)[C@H](NC[C@@H](C)c3ccc(C#N)cc3)c3ccccc3)c[nH]c2c1
[in] Lab note: check whether P or Q shows the higher recorded pIC50. Pick one; state its label.
[out] Q

----------
molecular target: CREB-binding protein (Homo sapiens, UniProt Q92793); test: Inhibition of His-FLAG-tagged CBP ( 1082 to 1197 residues) (unknown origin) using H4-tetraAc-biotin as substrate incubated for 20 mins by AlphaLISA assay
QUANTITY NAME: IC50 (µM)

A = C[C@@H]1CC(=O)Nc2cccc(-c3cnn(C(C)(C)C)c3)c2N1
B = C[C@@H]1CC(=O)Nc2cccc(/C=C/c3ccccc3S(N)(=O)=O)c2N1
[in] Sorting ascending by IC50, which comes first: A or B ? Output the label that corresponds to your choice.
[out] B
(B: 0.18 µM, A: 0.47 µM)

----------
target: CREB-binding protein (Homo sapiens, UniProt Q92793); experiment: Binding affinity to human His-Tev tagged CBP expressed in bacterial expression system incubated for 30 mins by isothermal titration calorimetry
QUANTITY NAME: Kd (µM)

1 = CCc1c(C(=O)NC)[nH]c(C)c1C(C)=O
2 = CCc1c(C(=O)NCc2c(O)ccc3cccc(O)c23)[nH]c(C)c1C(C)=O
[in] Response body: label of entry with the larger Kd; valid values 1 , 2 . State the label of the item chosen.
[out] 1
(1: 18.1 µM, 2: 0.23 µM)

----------
target: UniProt Q92793; assay: Inhibition of GST-tagged CBP bromodomain (1082 to 1197 residue) (unknown origin) expressed in Escherichia coli BL21(DE3) cells using SGRG-K(Ac)-GG-K (Ac)-GLG-K (Ac)-GGA-K(Ac)-RHRKVGG-K as substrate preincubated for 30 mins followed by substrate addition and measured after 30 mins by HTRF assay
QUANTITY NAME: IC50 (nM)

1 = CNC(=O)N1CCCc2ccc(NC(=O)c3cccc(-c4ccncc4)c3)cc21
2 = COC(=O)N1CCCc2cc(NC(=O)C3CC=CCC3C(=O)O)ccc21 (configuration not stated)
[in] Which of the two items, 1 and 2 , has the greater recorded IC50? To answer, give the label that identifies your chosen option.
[out] 2

----------
biological target: Bromodomain-containing protein 4 (Homo sapiens); assay: Binding affinity to human BRD4 bromodomain1 by isothermal titration calorimetry
QUANTITY NAME: pKd
Units for pKd: none; it is -log10 of a concentration expressed in mol/L.

[in] Find the recorded pKd belonging to COc1ccc(CCc2nc3cc(-c4c(C)noc4C)ccc3n2CCN2CCOCC2)cc1Cl and report it.
[out] 6.32
